From: paper PMC4080980

- assay comment: Urinary elimination/recovery after 500 mg oral bolus of 13C5-C3G
- Format: in vivo, humans
- reported conditions: urine, 0-48 h; single 500 mg oral 13C5-C3G; mean ± SEM
Mark met for Total recovery under 100 µg, not met if at or over.

- OCC1OC(Oc2cc3c(O)cc(O)cc3[o+]c2-c2ccc(O)c(O)c2)C(O)C(O)C1O (stereo not drawn) [Cyanidin-3-glucoside, 6,8,10,3′,5′-^13C5-cyanidin-3-glucoside]: not met
- COc1ccc(C(=O)O)cc1OC1OC(C(=O)O)C(O)C(O)C1O (stereo not drawn) [IsoVA-3-glucuronide]: not met
- O=C(O)Cc1ccc(O)c(O)c1 [3,4-Dihydroxyphenylacetic acid]: met
- COc1cc(C(=O)O)ccc1OC1OC(C(=O)O)C(O)C(O)C1O (stereo not drawn) [VA-4-glucuronide]: not met
- O=C(O)c1ccc(O)c(O)c1: met
- O=Cc1ccc(O)c(O)c1 [3,4-Dihydroxybenzaldehyde]: met
- O=C(O)c1ccc(OC2OC(C(=O)O)C(O)C(O)C2O)cc1 (stereo not drawn) [Benzoic acid-4-glucuronide]: met
- O=C(O)c1ccc(O)c(OC2OC(C(=O)O)C(O)C(O)C2O)c1 (stereo not drawn) [PCA-3-glucuronide]: not met

---

- assay comment: Urinary elimination/recovery after 500 mg oral bolus of 13C5-C3G
- Format: in vivo, humans
- reported conditions: urine; single 500 mg oral 13C5-C3G; mean ± SEM
assay metric: Maximum concentration (nM)

- OCC1OC(Oc2cc3c(O)cc(O)cc3[o+]c2-c2ccc(O)c(O)c2)C(O)C(O)C1O (stereo not drawn) [Cyanidin-3-glucoside, 6,8,10,3′,5′-^13C5-cyanidin-3-glucoside]: 334
- O=Cc1ccc(O)c(O)c1 [3,4-Dihydroxybenzaldehyde]: 24
- O=C(O)c1ccc(O)cc1: 49

---

- assay comment: Faecal recovery after 500 mg oral bolus of 13C5-C3G
- Type: in vivo, humans
- reported conditions: faeces, 24–48 h; 500 mg oral 13C5-C3G; mean ± SEM
Marks after values point to notes of the source that are not given here.
assay metric: Recovery 24–48 h

- COc1ccc(C(=O)O)cc1OC1OC(C(=O)O)C(O)C(O)C1O (stereo not shown) [IsoVA-3-glucuronide]: 12.7 ± 10.9 ^h μg
- O=C(O)c1ccc(O)c(OC2OC(C(=O)O)C(O)C(O)C2O)c1 (stereo not shown) [PCA-3-glucuronide]: 49.0 ^b μg
- COc1cc(C(=O)O)ccc1OS(=O)(=O)O [VA-4-sulfate]: 69.0 ± 39.1 ^g μg
- COc1ccc(C(=O)O)c(O)c1 [2-Hydroxy-4-methoxybenzoic acid]: 273.3 ± 272.7 ^h μg
- O=C(O)c1ccc(OC2OC(C(=O)O)C(O)C(O)C2O)cc1 (stereo not shown) [Benzoic acid-4-glucuronide]: 14.8 ± 8.0 ^i μg
- O=C(O)c1ccc(OS(=O)(=O)O)c(O)c1 [PCA-4-sulfate]: 12.0 ± 10.2 ^g μg
- O=Cc1ccc(O)c(O)c1 [3,4-Dihydroxybenzaldehyde]: 5.1 ± 1.8 ^i μg
- O=C(O)c1ccc(O)c(O)c1: 221.8 ± 134.9 ^d μg
- O=C(O)CNC(=O)c1ccccc1: 27.5 ± 27.4 ^h μg
- O=C(O)c1cccc(O)c1O [2,3-Dihydroxybenzoic acid]: 440.4 ± 381.8 ^h μg
- O=Cc1ccc(O)cc1 [4-Hydroxybenzaldehyde]: 0.1 ^b μg
- O=C(O)/C=C/c1ccc(O)c(O)c1: 354.6 ± 125.0 ^h μg
- COc1ccc(C(=O)O)cc1O: 8.5 ^b μg
- O=C(O)c1ccc(O)cc1: 22.0 ± 11.6 ^g μg
- O=C(O)Cc1ccc(O)c(O)c1 [3,4-Dihydroxyphenylacetic acid]: 12.8 ± 7.5 ^c μg
- COC(=O)c1ccc(O)c(O)c1 [Methyl-3,4-dihydroxybenzoate]: 92.4 ± 49.4 ^f μg
